System: A549
Experiment: Anticancer activity against human A549 cells assessed as cell growth inhibition measured after 48 hrs by SRB assay
Assay type: functional
measurement-kind: GI50

- smiles-data: "COC(=O)C[C@@H]1NC(=O)c2cc(Oc3ccccc3)c(NC(=O)c3cc(OC)c(OC)c(OC)c3)cc2NC1=O"
  measurement-kind: "GI50"
  readout-value: "> 50 µM"
- smiles-data: "COC(=O)C[C@@H]1NC(=O)c2cc(Oc3ccc(OC)cc3)c(NC(=O)c3cc(OC)c(OC)c(OC)c3)cc2NC1=O"
  measurement-kind: "GI50"
  readout-value: "> 50 µM"
- smiles-data: "CCN(CC)C(=O)C[C@@H]1NC(=O)c2cc(Oc3cc(C)c(Br)c(C)c3)c(NC(=O)c3cc(OC)c(OC)c(OC)c3)cc2NC1=O"
  measurement-kind: "GI50"
  readout-value: "0.243 µM"
- smiles-data: "COC(=O)C[C@@H]1NC(=O)c2cc(Oc3ccc(F)cc3)c(NC(=O)c3cc(OC)c(OC)c(OC)c3)cc2NC1=O"
  measurement-kind: "GI50"
  readout-value: "> 50 µM"

# credit: ChEMBL document CHEMBL5214978
